target: human parathyroid hormone receptor 1 (human, UniProt Q03431); assay: cell-based or functional assay
Non-standard residues stand in square brackets, D forms with d. No end group written: not given here. 1Nal = N[C@@H](Cc1cccc2ccccc12)C(=O)O; β3hI = CC[C@H](C)[C@H](N)CC(=O)O; Nle = CCCC[C@H](N)C(=O)O; Aib = CC(C)(N)C(=O)O
Hi there, I'd appreciate the recorded hPTHR-1 EC50 (nM), CRE-luciferase reporter gene assay for every entry that follows.
Respond numerically; units are nM and should not be typed.

Which hPTHR-1 EC50 (nM), CRE-luciferase reporter gene assay reading was recorded for the binder SVSEIQL[Nle]HNLGKHLNS[β3hI]ERVE[1Nal]LRKLLQHVHNF-NH2 [[Nle^8, β-hIle^18, 1-Nal^23, Leu^27, His^30] hPTH (1-34)-NH2] ? 0.18

Then what about the binder SVSEIQL[Nle]HNL[Aib]KHLNS[β3hI]ERVE[1Nal]LRKLLQDVHNF-NH2 [[Nle^8, Aib^12, β-hIle^18, 1-Nal^23, Leu^27] hPTH (1-34)-NH2] ? 0.23

Then what about the binder SVSEIQL[Nle]HNLGKHLNS[β3hI]ERVE[1Nal]LRKLLQDV-OH [[Nle^8, β-hIle^18, 1-Nal^23, Leu^27] hPTH (1-31)-OH] ? 0.09

Cited source: patent US20110195900A1
